Values were extracted from ChEMBL document CHEMBL3988442.

target: Histidine--tRNA ligase (Trypanosoma cruzi (strain CL Brener)) (UniProt Q4DA54); assay: Trypanosoma cruzi histidyl tRNA synthetase (Tc-HisRS); format: functional; parameters: scale not given: direction of the effect not stated beside the values; conditions: 30 µM
Sequence (Q4DA54 as listed by the source): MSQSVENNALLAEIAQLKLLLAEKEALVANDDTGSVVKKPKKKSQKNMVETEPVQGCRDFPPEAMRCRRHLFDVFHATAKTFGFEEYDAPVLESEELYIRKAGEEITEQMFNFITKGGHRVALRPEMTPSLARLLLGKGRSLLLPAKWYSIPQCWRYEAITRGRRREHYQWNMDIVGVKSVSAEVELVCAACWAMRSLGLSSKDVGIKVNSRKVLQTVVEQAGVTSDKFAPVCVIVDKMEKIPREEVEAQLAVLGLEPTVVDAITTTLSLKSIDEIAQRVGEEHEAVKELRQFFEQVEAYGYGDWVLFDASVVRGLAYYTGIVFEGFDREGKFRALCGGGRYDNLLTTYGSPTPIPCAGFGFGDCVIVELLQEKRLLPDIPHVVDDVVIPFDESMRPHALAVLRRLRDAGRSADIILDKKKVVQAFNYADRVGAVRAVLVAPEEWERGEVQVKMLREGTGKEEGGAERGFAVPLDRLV
Screen size: about 69,000 compounds; about 30 (0.04%) showed an effect of 50% or more. The full list was thinned out, with strong results kept by preference.
readout kind: Percent Effect (%)
One number for each entry, in %.

INSERT INTO measurements (compound, units_of_measure, reported_value) VALUES
  ('CNC(=O)[C@H]1C[C@@H]2CN(C(=O)NC(C)C)C[C@H]1O2', '%', 1.03);

Below are 5 compounds. Give each one its Percent Effect.
1. Cc1ccccc1C(=O)N1CC[C@@H]2CN(c3ncccn3)CCO[C@@H]2C1
2. Cn1cc(NC(=O)N2CCCC2c2cccnc2)ccc1=O (stereo unspecified)
3. Cn1cc(NC(=O)N2CCCC2c2ccccn2)ccc1=O (stereo unspecified)
4. CNC(=O)[C@@]12CCC3(CCN(C(=O)COC)CC3)[C@@H]1CN(S(C)(=O)=O)C2
5. c1cnc(N2C[C@@H]3COC[C@]3(COCC3CCCC3)C2)nc1

Result:
0.98
38.6
69.3
3.74
14.3
